test system: SF-268 CNS; test: NCI tumour cell line growth inhibition, 48 h
List of TGI values.
Give the value, in units of µM, as a plain number.

1. CCN(CC)c1sc(N(CC)CC)c2c1SSSSS2 : 4.53

Query: Please give the measured TGI for this molecule: C[N+](C)(C)CC1CCCC(C[N+](C)(C)C)C1=O (stereo not given)
Response: 55.9

Query: Consider the molecule shown here: "CN(C)c1ccc(N)cc1" What is its recorded TGI?
Response: 32.7

---

Each entry below lists one item and its recorded TGI value.
tested on: A498 renal; assay: NCI tumour cell line growth inhibition, 48 h
Give the value, in units of µM, as a plain number.

1. COc1ccc(OC)c(/C=C/C(=O)N/N=C/c2ccc(Cl)cc2)c1 : 36.6
2. CC(=O)Nc1ccc(-c2nc3ccccc3s2)cc1Br : 32.1
3. O=C(N/N=C/c1cccc(O)c1O)c1ccccc1 : 65.4

Query: If you can, please state the reported TGI value of "CCOC(=O)CC[C@H](N)C(=O)N[C@@H](Cc1ccc(N(CCCl)CCCl)cc1)C(=O)OCC" .
Response: 42

Query: TGI for CCC1CN2CCc3cc(OC)c(OC)cc3C2CC1CC1c2cc(OC)c(OC)cc2CCN1C(=O)C(N)Cc1ccccc1 (stereo unspecified) ?
Response: 11

Query: For CCC(C)C(=O)OC1C(=O)OC2CC3C(C)=CC(=O)C(O)C3(C)C3C4(O)OCC23C1C(C)C4O (stereo unspecified) , what is its reported TGI?
Response: 3.3

Query: Quick one: TGI of "CN(C)CC/C(=N\Nc1c(Cl)cccc1Cl)c1ccccc1" ?
Response: 34.8

Query: Any idea what its TGI is? The compound is "CCS(=O)(=O)c1ccc(OC)c(Nc2ncc(-c3cccc(OC)c3)o2)c1"
Response: 4.28

Query: Which measured TGI value corresponds to COc1ccc2c(c1)CCC1C3(CCCC21C)OCCO3 (stereo unspecified) ?
Response: 82.6

Query: // lookup TGI for NC1C/C(=N\O)c2c(Cl)sc(Cl)c21 (stereo unspecified)
Response: 59.8

Query: Looking for the measured TGI of "CCS(=O)(=O)c1ccc(OC)c(Nc2ncc(-c3cccc(C(C)=O)c3)o2)c1" , can you help?
Response: 5.88

---

system: SF-268 CNS; test: NCI tumour cell line growth inhibition, 48 h
measured attribute: TGI

1) COc1ccc(N2C(=O)C3c4[nH]c5ccc(C)cc5c4C4CCC(C(C)(C)C)CC4C3C2=O)cc1 (stereo not given) : 64.5 µM
2) CC1(C)C2CC(O)C1(C)CC2=O (stereo not given) : > 100 µM
3) Cc1cccc(NC(=O)C(=O)Cc2nc3ccccc3[nH]c2=O)c1C : > 100 µM
4) NCCCC[C@@H]1NC(=O)[C@H]2CCCN2C(=O)[C@H](Cc2ccccc2)NC(=O)[C@H](Cc2ccccc2)CNC1=O : > 100 µM

Below: the item to evaluate.
Query: Give its TGI value. Item: "COC(=O)c1ccccc1/C=C1\Cc2c(ccc3c2CCC3)C1=O"
Response: > 100 µM

---

tested on: TK-10 renal; test: NCI tumour cell line growth inhibition, 48 h
measured attribute: TGI

Worked set:
1) NCCCC[C@@H]1NC(=O)[C@H]2CCCN2C(=O)[C@H](Cc2ccccc2)NC(=O)[C@H](Cc2ccccc2)CNC1=O : > 100 µM
2) CCc1[nH]c(=O)nc(N)c1-c1ccc(N2CCCCC2)c([N+](=O)[O-])c1 : > 100 µM
3) O=C1c2c(Br)sc(Br)c2C(NC(=O)C(F)(F)F)C1O (stereo not given) : > 100 µM
4) COc1nn(Cc2ccccn2)c2ccc([N+](=O)[O-])cc12 : > 100 µM
5) COc1ccccc1C[C@@H]1OC2(C=CC(=O)CC2SC(=O)c2ccccc2)O[C@H]1Cc1ccccc1OC (stereo not given in full) : 5.07 µM

// switching to the query molecule
Query: I'd like to know its TGI. The molecule in question is "Cc1c2c(cc3c1C(=O)C(=O)C([C@@H](C)CO)=C3O)C(C)(C)CCC2"
Response: > 100 µM

Taken from PubChem BioAssay (NCI).
